tested on: IL-5 production; test: In vitro inhibition of IL-5 production in human blood (phytohemagglutinin-stimulated whole blood, ELISA); format: cell-based; conditions: test dose 1×10^−6 M, 48 hours;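 note: values marked with an asterisk were tested at 10 µM and unmarked values at 1 µM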
Response key: y means % inh. (percentage inhibition of IL-5 production) >= 80%; n means % inh. (percentage inhibition of IL-5 production) < 80%.

As a guide, the following entries are already answered.
compound="Cc1nnc(C(c2ccc(Cl)cc2)c2ccc(-n3ncc(=O)[nH]c3=O)cc2Cl)o1 (racemic)" category_label=n
compound="O=c1cnn(-c2ccc(C(c3ccc(Cl)cc3)n3cncn3)c(Cl)c2)c(=O)[nH]1 (racemic)" category_label=n
compound="CC(c1ccc(Cl)c(C(F)(F)F)c1)(c1nc(-c2ccccc2)cs1)c1c(Cl)cc(-n2ncc(=O)[nH]c2=O)cc1Cl (racemic)" category_label=y
compound="CC(c1ccc(Cl)cc1)(c1nc(-c2ccccc2)c(-c2ccccc2)s1)c1c(Cl)cc(-n2ncc(=O)[nH]c2=O)cc1Cl (racemic)" category_label=y
compound="Nc1cc(N)nc(SC(c2ccc(Cl)cc2)c2ccc(-n3ncc(=O)[nH]c3=O)cc2Cl)n1 (racemic)" category_label=n

Would you say O=c1cnn(-c2cc(Cl)c(C(c3ccc(Cl)cc3)c3nc(-c4ccccc4)c(CO)s3)c(Cl)c2)c(=O)[nH]1 (racemic) shows % inh. (percentage inhibition of IL-5 production) at minimum 80%?
y

Follow-up item: COc1cc(C(c2nc(-c3ccccc3)cs2)c2c(Cl)cc(-n3ncc(=O)[nH]c3=O)cc2Cl)ccc1Cl (racemic)
y

----------
system: IL-5 production; assay: In vitro inhibition of IL-5 production in human blood (phytohemagglutinin-stimulated whole blood, ELISA); type: cell-based; conditions: test dose 1×10^−6 M, 48 hours;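 note: values marked with an asterisk were tested at 10 µM and unmarked values at 1 µM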
property.measured: % inh. (percentage inhibition of IL-5 production) (%)
Reply with just the number (in %).

compound="O=c1cnn(-c2ccc(C(c3ccc(Cl)cc3)c3nc4sccn4c3-c3ccccc3)c(Cl)c2)c(=O)[nH]1 (stereo not drawn)" reading_unit=% test_result=82

So what's the measured % inh. (percentage inhibition of IL-5 production) for this one? O=c1cnn(-c2ccc(C(Sc3nc4ccccc4s3)c3ccc(Cl)cc3)c(Cl)c2)c(=O)[nH]1 (racemic)
65

Follow-up item: Cc1cc(C(C)(c2ccc(Cl)c(C(F)(F)F)c2)c2nc(-c3ccccc3)cs2)c(Cl)cc1-n1ncc(=O)[nH]c1=O (racemic)
79

----------
tested on: IL-5 production; test: In vitro inhibition of IL-5 production in human blood (phytohemagglutinin-stimulated whole blood, ELISA); assay type: cell-based; settings: test dose 1×10^−6 M, 48 hours;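 note: values marked with an asterisk were tested at 10 µM and unmarked values at 1 µM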
property.measured: % inh. (percentage inhibition of IL-5 production)
# number then unit; no other words

compound="Cc1sc(C(c2ccc(Cl)cc2)c2c(Cl)cc(-n3ncc(=O)[nH]c3=O)cc2Cl)nc1-c1cccc(F)c1 (racemic) [Comp 258]" test_result=98%
compound="O=c1cnn(-c2cc(Cl)c(C(Nc3nc(-c4ccccc4)cs3)c3ccc(Cl)c(C(F)(F)F)c3)c(Cl)c2)c(=O)[nH]1 (racemic)" test_result=94%
compound="O=c1cnn(-c2cc(Cl)c(C(c3ccc(Cl)cc3)c3nnc(CCc4ccccc4)o3)c(Cl)c2)c(=O)[nH]1 (racemic)" test_result=17%
compound="CCOC(=O)Cc1nnc(C(c2ccc(Cl)cc2)c2c(Cl)cc(-n3ncc(=O)[nH]c3=O)cc2Cl)o1 (racemic)" test_result=3%
compound="O=c1cnn(-c2cc(Cl)c(C(c3ccc(Cl)c(C(F)(F)F)c3)c3nc(-c4ccccc4)cs3)c(Cl)c2)c(=O)[nH]1 (racemic)" test_result=93%
compound="O=C(Cc1sc(C(c2ccc(Cl)cc2)c2c(Cl)cc(-n3ncc(=O)[nH]c3=O)cc2Cl)nc1-c1ccccc1)NC1CCN(Cc2ccccc2)CC1 (racemic)" test_result=89%
compound="NS(=O)(=O)Nc1cccc(-c2nnc(C(c3ccc(Cl)cc3)c3c(Cl)cc(-n4ncc(=O)[nH]c4=O)cc3Cl)o2)c1.O (racemic)" test_result=−2%
compound="COc1cccc(-c2nnc(C(c3ccc(Cl)cc3)c3c(Cl)cc(-n4ncc(=O)[nH]c4=O)cc3Cl)o2)c1 (racemic)" test_result=62%
compound="O=c1cnn(-c2cc(Cl)c(C(Sc3nc4cc(Cl)ccc4s3)c3ccc(Cl)c(C(F)(F)F)c3)c(Cl)c2)c(=O)[nH]1 (racemic)" test_result=90%
compound="Cc1cc(C(C)(c2ccc(Cl)c(C(F)(F)F)c2)c2nc(-c3ccccc3)c(C)s2)c(Cl)cc1-n1ncc(=O)[nH]c1=O (racemic)" test_result=74%

So what's the measured % inh. (percentage inhibition of IL-5 production) for this one? O=c1cnn(-c2cc(Cl)c(C(Sc3cnccn3)c3ccc(Cl)c(C(F)(F)F)c3)c(Cl)c2)c(=O)[nH]1 (racemic)
92%

Follow-up item: O=c1cnn(-c2cc(Cl)c(C(c3ccc(Cl)cc3)c3nnc(-c4ccccc4F)o3)c(Cl)c2)c(=O)[nH]1 (racemic)
91%

Follow-up item: Cc1nc(C(c2ccc(Cl)cc2)c2c(Cl)cc(-n3ncc(=O)[nH]c3=O)cc2Cl)sc1C (racemic)
89%

Follow-up item: O=c1cnn(-c2cc(Cl)c(C(c3ccc(Cl)cc3)c3nc(-c4cc(Cl)ccc4Cl)cs3)c(Cl)c2)c(=O)[nH]1 (racemic)
82%

Follow-up item: CN(C)Cc1sc(C(c2ccc(Cl)cc2)c2c(Cl)cc(-n3ncc(=O)[nH]c3=O)cc2Cl)nc1-c1ccccc1 (racemic)
96%

----------
system: IL-5 production; assay: In vitro inhibition of IL-5 production in human blood (phytohemagglutinin-stimulated whole blood, ELISA); assay type: cell-based; settings: test dose 1×10^−6 M, 48 hours;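 note: values marked with an asterisk were tested at 10 µM and unmarked values at 1 µM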
Entries and their % inh. (percentage inhibition of IL-5 production)
Reply with just the number (in %).

Field: example entries. Status: answers known.
molecule="Nc1ccc(SC(c2ccc(Cl)c(C(F)(F)F)c2)c2c(Cl)cc(-n3ncc(=O)[nH]c3=O)cc2Cl)cc1 (stereo not shown)" test_result=93
molecule="O=c1cnn(-c2cc(Cl)c(C(Sc3nccc(N(CCO)CCO)n3)c3ccc(Cl)cc3)c(Cl)c2)c(=O)[nH]1 (racemic)" test_result=63
molecule="O=c1cnn(-c2cc(Cl)c(C(Sc3nc4cccnc4s3)c3ccc(Cl)cc3)c(Cl)c2)c(=O)[nH]1 (stereo not shown)" test_result=92
molecule="O=c1cnn(-c2ccc(C(Sc3ccncc3)c3ccc(Cl)cc3)c(Cl)c2)c(=O)[nH]1 (racemic)" test_result=50
molecule="CC(c1ccc(Cl)c(C(F)(F)F)c1)(c1nnc(-c2ccccc2)o1)c1ccc(-n2ncc(=O)[nH]c2=O)cc1Cl (racemic)" test_result=80
molecule="O=c1cnn(-c2cc(Cl)c(C(c3ccc(Cl)cc3)c3csc(-c4ccccc4)n3)c(Cl)c2)c(=O)[nH]1 (racemic)" test_result=91

So what's the measured % inh. (percentage inhibition of IL-5 production) for this one? O=c1cnn(-c2cc(Cl)c(C(c3ccc(Cl)c(C(F)(F)F)c3)c3nnc(-c4ccccc4)o3)c(Cl)c2)c(=O)[nH]1 (racemic)
80

Follow-up item: Cc1sc(-c2ccccc2)nc1C(c1ccc(Cl)cc1)c1c(Cl)cc(-n2ncc(=O)[nH]c2=O)cc1Cl (racemic)
88

Follow-up item: CCc1sc(C(c2ccc(Cl)cc2)c2c(Cl)cc(-n3ncc(=O)[nH]c3=O)cc2Cl)nc1-c1ccccc1F (racemic)
93

Follow-up item: O=c1cnn(-c2cc(Cl)c(C(Sc3nc4cccnc4s3)c3ccc(Cl)c(C(F)(F)F)c3)c(Cl)c2)c(=O)[nH]1 (stereo not shown)
95

Follow-up item: O=c1cnn(-c2cc(Cl)c(C(c3ccc(Cl)cc3)c3nnc(CCOc4ccccc4)o3)c(Cl)c2)c(=O)[nH]1 (racemic)
25

Follow-up item: O=c1cnn(-c2ccc(C(O)(c3ccc(Cl)cc3)c3nc(-c4ccccc4)cs3)c(Cl)c2)c(=O)[nH]1 (racemic)
58

Follow-up item: CCc1sc(C(C)(c2ccc(Cl)c(Cl)c2)c2c(Cl)cc(-n3ncc(=O)[nH]c3=O)cc2Cl)nc1-c1ccccc1 (racemic)
90

----------
tested on: IL-5 production; assay: In vitro inhibition of IL-5 production in human blood (phytohemagglutinin-stimulated whole blood, ELISA); type: cell-based; conditions: test dose 1×10^−6 M, 48 hours;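 note: values marked with an asterisk were tested at 10 µM and unmarked values at 1 µM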
property.measured: % inh. (percentage inhibition of IL-5 production)

compound="Cc1sc(C(c2ccc(Cl)cc2)c2c(Cl)cc(-n3ncc(=O)[nH]c3=O)cc2Cl)nc1-c1ccccc1Cl (racemic)" test_result=87%
compound="Cc1ccoc1-c1nnc(C(c2ccc(Cl)cc2)c2c(Cl)cc(-n3ncc(=O)[nH]c3=O)cc2Cl)o1 (racemic)" test_result=94%
compound="O=c1cnn(-c2cc(Cl)c(C(c3ccc(Cl)cc3)c3nnc(-c4ccc(Cl)cc4)o3)c(Cl)c2)c(=O)[nH]1 (racemic)" test_result=82%
compound="O=c1cnn(-c2cc(Cl)c(C(c3ccc(Cl)cc3)c3csc(-c4ccccc4Cl)n3)c(Cl)c2)c(=O)[nH]1 (racemic)" test_result=74%
compound="COCc1cc(O)nc(SC(c2ccc(Cl)cc2)c2ccc(-n3ncc(=O)[nH]c3=O)cc2Cl)n1 (racemic)" test_result=19%

So what's the measured % inh. (percentage inhibition of IL-5 production) for this one? CCOC(=O)c1sc(C(c2ccc(Cl)cc2)c2c(Cl)cc(-n3ncc(=O)[nH]c3=O)cc2Cl)nc1-c1ccccc1F (racemic)
89%
